Molecular target: Upc2 (UniProt Q12151)
Sequence: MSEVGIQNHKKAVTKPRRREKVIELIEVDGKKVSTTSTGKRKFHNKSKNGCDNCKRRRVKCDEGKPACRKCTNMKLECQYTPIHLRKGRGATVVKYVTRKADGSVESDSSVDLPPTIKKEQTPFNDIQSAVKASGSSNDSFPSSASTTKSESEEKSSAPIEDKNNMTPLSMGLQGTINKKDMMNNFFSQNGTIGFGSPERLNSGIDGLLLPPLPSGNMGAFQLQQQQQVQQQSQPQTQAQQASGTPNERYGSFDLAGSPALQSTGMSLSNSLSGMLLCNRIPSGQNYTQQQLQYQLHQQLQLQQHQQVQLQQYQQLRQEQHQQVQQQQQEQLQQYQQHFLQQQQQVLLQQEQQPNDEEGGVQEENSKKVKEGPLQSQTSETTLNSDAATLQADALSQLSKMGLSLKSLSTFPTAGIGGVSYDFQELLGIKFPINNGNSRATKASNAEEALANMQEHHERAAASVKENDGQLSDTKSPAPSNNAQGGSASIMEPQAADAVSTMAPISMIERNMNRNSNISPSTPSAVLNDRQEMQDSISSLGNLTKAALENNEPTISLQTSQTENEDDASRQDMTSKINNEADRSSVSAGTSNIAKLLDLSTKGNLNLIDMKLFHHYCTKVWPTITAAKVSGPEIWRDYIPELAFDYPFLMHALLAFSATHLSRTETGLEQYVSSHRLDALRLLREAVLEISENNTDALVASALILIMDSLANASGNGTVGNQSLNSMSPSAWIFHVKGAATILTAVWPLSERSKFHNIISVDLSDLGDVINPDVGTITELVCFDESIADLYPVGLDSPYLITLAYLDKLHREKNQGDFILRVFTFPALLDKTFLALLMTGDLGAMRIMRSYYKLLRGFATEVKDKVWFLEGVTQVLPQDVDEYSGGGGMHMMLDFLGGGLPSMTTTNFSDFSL
Assay: PBM E-score (8-mer binding enrichment) (E-score (-0.5 to 0.5)); higher = stronger / more preferred TF binding
Settings: protein concentration: 200 nM; construct: GST-full length
In all, about 33,000 sequences were measured (“E-score (-0.5 to 0.5)”: median about -0.043, highest 2% from about 0.37 on). The sample holds the highest values, similar sequences and a random draw of the others, so the mix is not that of the screen.
metric_name: PBM E-score

Qu. Given the sequence "CAACGATC" , what is its reported PBM E-score?
Ans. 0.11

Qu. # lookup: PBM E-score of "ACGATACT"
Ans. 0.313

Qu. Given the entry "ACGATACG" , report its measured PBM E-score.
Ans. 0.391

Qu. Would you kindly share the measured PBM E-score for "ACCGACCG" ?
Ans. 0.13

Qu. Given "ATACGATA" , state its recorded PBM E-score.
Ans. 0.472

----------
Target: Upc2 (UniProt Q12151)
Sequence: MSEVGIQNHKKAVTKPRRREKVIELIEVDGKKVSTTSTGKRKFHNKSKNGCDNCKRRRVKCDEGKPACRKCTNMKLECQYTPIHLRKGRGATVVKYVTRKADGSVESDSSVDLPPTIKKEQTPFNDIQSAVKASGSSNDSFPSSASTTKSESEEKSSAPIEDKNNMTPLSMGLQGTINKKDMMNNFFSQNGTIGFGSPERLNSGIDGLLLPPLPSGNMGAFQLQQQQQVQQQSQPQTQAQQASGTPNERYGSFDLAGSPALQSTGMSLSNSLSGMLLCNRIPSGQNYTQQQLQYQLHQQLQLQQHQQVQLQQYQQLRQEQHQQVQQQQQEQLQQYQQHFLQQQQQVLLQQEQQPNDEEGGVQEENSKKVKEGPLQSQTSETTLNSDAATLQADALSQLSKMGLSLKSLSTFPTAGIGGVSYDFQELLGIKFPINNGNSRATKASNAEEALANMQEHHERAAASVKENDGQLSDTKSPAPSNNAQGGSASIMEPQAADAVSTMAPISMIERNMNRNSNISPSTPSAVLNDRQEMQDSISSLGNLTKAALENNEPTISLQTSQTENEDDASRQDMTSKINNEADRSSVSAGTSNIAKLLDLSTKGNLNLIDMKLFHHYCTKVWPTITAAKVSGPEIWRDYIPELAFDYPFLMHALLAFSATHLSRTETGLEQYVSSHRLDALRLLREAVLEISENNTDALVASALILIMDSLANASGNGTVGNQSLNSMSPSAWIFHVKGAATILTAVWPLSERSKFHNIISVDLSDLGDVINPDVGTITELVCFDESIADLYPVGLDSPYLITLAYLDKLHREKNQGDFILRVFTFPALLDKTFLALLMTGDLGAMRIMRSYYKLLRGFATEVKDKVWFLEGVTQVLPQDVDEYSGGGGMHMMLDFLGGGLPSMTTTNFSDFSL
Assay: PBM E-score (8-mer binding enrichment) (E-score (-0.5 to 0.5)); higher = stronger / more preferred TF binding
Conditions: protein concentration: 200 nM; construct: GST-full length
Over roughly 33,000 sequences, “E-score (-0.5 to 0.5)” has its median near -0.043; the highest 2% begin near 0.37. The full list was thinned out, with the highest values kept by preference.
metric_name: PBM E-score
API note: the answer field is a bare number with no unit suffix.

biopolymer_sequence | target | PBM E-score
GTTAAAAA | Upc2 (UniProt Q12151) | 0.11
GATACGAA | Upc2 (UniProt Q12151) | 0.454
TCGTACAA | Upc2 (UniProt Q12151) | 0.487
TTTAGAAA | Upc2 (UniProt Q12151) | 0.133
CCGTTAAA | Upc2 (UniProt Q12151) | 0.33

Qu. // returns reported PBM E-score for input "TTGTAAAA"
Ans. 0.0751

Qu. // PBM E-score lookup, key: "AGCAAGCT"
Ans. -0.253

Qu. Which PBM E-score is reported for this sequence? "AGCCGAAG"
Ans. -0.185

----------
Target: Upc2 (UniProt Q12151)
Sequence: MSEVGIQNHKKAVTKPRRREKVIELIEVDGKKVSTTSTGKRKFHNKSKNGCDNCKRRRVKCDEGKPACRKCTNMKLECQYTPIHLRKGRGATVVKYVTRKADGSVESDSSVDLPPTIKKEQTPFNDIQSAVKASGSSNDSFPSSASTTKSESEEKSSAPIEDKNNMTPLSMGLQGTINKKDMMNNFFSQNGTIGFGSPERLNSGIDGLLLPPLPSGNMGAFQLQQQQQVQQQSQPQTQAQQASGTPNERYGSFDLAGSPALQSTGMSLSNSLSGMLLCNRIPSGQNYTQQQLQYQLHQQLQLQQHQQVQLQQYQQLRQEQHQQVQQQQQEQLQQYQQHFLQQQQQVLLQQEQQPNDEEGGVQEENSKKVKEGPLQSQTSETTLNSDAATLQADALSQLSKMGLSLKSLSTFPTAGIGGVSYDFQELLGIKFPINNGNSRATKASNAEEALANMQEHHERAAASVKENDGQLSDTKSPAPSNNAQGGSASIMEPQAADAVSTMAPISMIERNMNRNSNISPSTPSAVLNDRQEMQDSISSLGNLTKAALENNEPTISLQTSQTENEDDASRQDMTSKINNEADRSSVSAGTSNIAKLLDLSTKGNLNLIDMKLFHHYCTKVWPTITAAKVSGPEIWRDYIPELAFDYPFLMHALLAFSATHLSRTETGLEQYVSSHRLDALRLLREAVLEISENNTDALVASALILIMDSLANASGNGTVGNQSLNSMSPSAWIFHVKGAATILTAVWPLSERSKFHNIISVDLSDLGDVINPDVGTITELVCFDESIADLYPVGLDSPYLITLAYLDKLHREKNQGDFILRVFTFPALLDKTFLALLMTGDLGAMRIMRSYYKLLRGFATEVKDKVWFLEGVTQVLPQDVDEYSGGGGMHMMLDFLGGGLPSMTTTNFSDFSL
Assay: PBM E-score (8-mer binding enrichment) (E-score (-0.5 to 0.5)); higher = stronger / more preferred TF binding
Conditions: protein concentration: 200 nM; construct: GST-full length
Over roughly 33,000 sequences, “E-score (-0.5 to 0.5)” has its median near -0.043; the highest 2% begin near 0.37. The list comes from a sample in which the highest values are over-represented; it also holds close analogues and randomly drawn sequences.
Label rule met when PBM E-score >= -0.01; otherwise rule not met.

Some solved entries appear below for comparison.
biopolymer_sequence | target | qualitative_label
GAGGTCGC | Upc2 (UniProt Q12151) | rule not met
ACCGTTAT | Upc2 (UniProt Q12151) | rule not met
GACGAAGA | Upc2 (UniProt Q12151) | rule not met
AAGTTATT | Upc2 (UniProt Q12151) | rule met
ATCTACGA | Upc2 (UniProt Q12151) | rule met
GTAAACCA | Upc2 (UniProt Q12151) | rule met

Qu. Quick check: does "GTAATATA" have PBM E-score greater than or equal to -0.01?
Ans. rule met

Qu. Item "ATAGGGAT" with PBM E-score of -0.01 or above?
Ans. rule not met

Qu. Please indicate if the recorded PBM E-score for "CGCATAGC" meets or exceeds -0.01.
Ans. rule met

Qu. Is PBM E-score at least -0.01? Consider "CACGAAGA"
Ans. rule met

Qu. // inclusive: PBM E-score at least -0.01? input: "ATCAATCA"
Ans. rule met
